target: T1, StrepII-tagged ROR1-extracellular domain (human) (human, UniProt Q01973 30-406); assay: SPR (Biacore T200), IgG from HEK293T supernatant captured by anti-human Fc, ROR1-strep 2.5-20 nM as analyte, 1:1 model, 25 C
T1 construct: extracellular domain; also called ROR1-strep; soluble ROR1-strep
T1 sequence (Q01973 other isoform, or with tags, fused parts or gaps): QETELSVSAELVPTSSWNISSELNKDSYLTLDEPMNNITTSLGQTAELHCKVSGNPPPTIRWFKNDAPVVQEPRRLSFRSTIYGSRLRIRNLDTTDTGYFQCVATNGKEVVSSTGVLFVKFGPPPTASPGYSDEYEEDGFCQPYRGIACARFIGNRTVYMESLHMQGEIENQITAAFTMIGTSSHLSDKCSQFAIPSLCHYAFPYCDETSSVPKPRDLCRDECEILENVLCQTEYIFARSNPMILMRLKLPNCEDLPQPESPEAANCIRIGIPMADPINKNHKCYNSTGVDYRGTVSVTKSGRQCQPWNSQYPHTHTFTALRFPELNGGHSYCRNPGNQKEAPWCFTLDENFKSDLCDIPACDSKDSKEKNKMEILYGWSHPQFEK
measureName: kon (M⁻¹ s⁻¹)
Give the quantity in M⁻¹ s⁻¹, number only.

huR12_16, humanized from R12 (antibody, human IgG1, V domains shown, Human IgG1 with lambda light chain) VH: QVQLVESGGELVTPGGSLTLSCKASGFDFSAYYMSWVRQAPGKGLEWIASIYPSSGKTYYAAAVQGRFTISADNAKNTVYLQMNSLTAADTATYFCARDSYADDGALFNIWGQGTLVTVSS VL: QLVLTQSPSVSAALGSSAKITCTLSSAHKTDTIDWYQQLAGQAPRYLMYVQSDGSYEKRSGVPDRFSGSSSGADRYLIISSVQADDEADYYCGADYIGGYVFGGGTQLTVG : 960000

Supply measured kon of huR12_11, humanized from R12 (antibody, human IgG1, V domains shown, Human IgG1 with lambda light chain) VH: QVQLVESGGALVQPGGSLTLSCKASGFDFSAYYMSWVRQAPGKGLEWIATIYPSSGKTYYAASVQGRFTISADNAKNTVYLQMNSLTAADTATYFCARDSYADDGALFNIWGQGTLVTVSS VL: QLVLTQSPSVSAALGSSAKITCTLSSAHKTDTIDWYQQLAGQAPRYLMYVQSDGSYEKRSGVPDRFSGSSSGADRYLIISSVQADDEADYYCGADYIGGYVFGGGTQLTVG in your reply.
1.15e+06

# credit: patent US20190153092A1
